Origin of values: ChEMBL document CHEMBL3098030

# TGT: Eukaryotic translation initiation factor 2-alpha kinase 1 (Homo sapiens)
# TEST SUMMARY: Activation of HRI in human CRL-2813-pBISA-DL(ATF-4) reporter cells assessed as reduction of ternary complex at 30 uM by dual-luciferase reporter gene assay relative to control
Mark Criterion met for reported Ratio of 2 or greater; mark Criterion not met for anything smaller.

Quick check, Ratio >= 2? O=C(Nc1cccc(C(F)(F)F)c1)NC1CCCCC1 Criterion not met

How about Cc1cccc(NC(=O)N[C@H]2CC[C@H](Oc3ccc(F)cc3)CC2)c1 ? Criterion met

How about O=C(Nc1cccc(C(=O)O)c1)N[C@H]1CC[C@H](Oc2ccc(F)cc2)CC1 ? Criterion not met

How about COc1ccccc1NC(=O)N[C@H]1CC[C@H](Oc2ccc(F)cc2)CC1 ? Criterion not met

How about O=C(Nc1cccc(C(F)(F)F)c1)N[C@H]1CC[C@H](Oc2ccc(OC(F)(F)F)cc2)CC1 ? Criterion met

How about Cc1ccc(NC(=O)N[C@H]2CC[C@H](Oc3ccc(F)cc3)CC2)cc1 ? Criterion not met

How about O=C(Nc1ccc(OC(F)(F)F)cc1)N[C@H]1CC[C@H](Oc2ccc(F)cc2)CC1 ? Criterion met

How about COc1ccc(NC(=O)N[C@H]2CC[C@H](Oc3ccc(F)cc3)CC2)cc1 ? Criterion not met

How about O=C(Nc1ccccc1OC(F)(F)F)N[C@H]1CC[C@H](Oc2ccc(F)cc2)CC1 ? Criterion not met

How about O=C(Nc1cccc(C(F)(F)F)c1)N[C@H]1CC[C@H](Oc2ccccc2C(F)(F)F)CC1 ? Criterion met

How about O=C(Nc1ccccc1Cl)N[C@H]1CC[C@H](Oc2ccc(F)cc2)CC1 ? Criterion met

How about CSc1cccc(NC(=O)N[C@H]2CC[C@H](Oc3ccc(F)cc3)CC2)c1 ? Criterion met

How about O=C(Nc1ccc(F)cc1)N[C@H]1CC[C@H](Oc2ccc(F)cc2)CC1 ? Criterion not met

How about O=C(Nc1ccc(Cl)cc1)N[C@H]1CC[C@H](Oc2ccc(F)cc2)CC1 ? Criterion not met

====

# TGT: Eukaryotic translation initiation factor 2-alpha kinase 1 (Homo sapiens)
# TEST SUMMARY: Activation of HRI in human CRL-2813-pBISA-DL(ATF-4) reporter cells assessed as reduction of ternary complex at 30 uM by dual-luciferase reporter gene assay relative to control
Mark T for reported Ratio of 3 or greater; mark F for anything smaller.

The following compounds have reported results that may help.
MOLECULE SMILES: O=C(Nc1ccccc1C(=O)O)N[C@H]1CC[C@@H](Oc2ccc(F)cc2)CC1
TGT: Eukaryotic translation initiation factor 2-alpha kinase 1 (Homo sapiens)
GROUP: F

MOLECULE SMILES: CSc1ccc(NC(=O)N[C@H]2CC[C@H](Oc3ccc(F)cc3)CC2)cc1
TGT: Eukaryotic translation initiation factor 2-alpha kinase 1 (Homo sapiens)
GROUP: F

MOLECULE SMILES: O=C(Nc1cccc(I)c1)N[C@H]1CC[C@H](Oc2ccc(F)cc2)CC1
TGT: Eukaryotic translation initiation factor 2-alpha kinase 1 (Homo sapiens)
GROUP: T

Quick check, Ratio >= 3? O=C(Nc1cccc([N+](=O)[O-])c1)N[C@H]1CC[C@H](Oc2ccc(F)cc2)CC1 T

How about O=C(Nc1ccccc1I)N[C@H]1CC[C@H](Oc2ccc(F)cc2)CC1 ? T
